# Test: protein stability index of a GFP-peptide fusion (GPS, HEK-293T) (PSI 1-6); higher = more stable;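 also: 24-mer peptide tiles fused after GFP, lentivirally expressed, FACS-sorted into six equal bins by GFP/DsRed ratio, decoded by Illumina sequencing, PSI is the read-weighted mean bin number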
# Conditions used: treatment: DMSO; c terminus: a fixed tail appended
Entries and their protein stability index values follow.
// response body must contain only the number

Illustrative cases are given below, each with its answer.
Entry sequence	protein stability index
FVTGNCLEISPDCSQYDRVYCGAG [PCMTD2]	2.43
SPVVVEKSNSYPHQLYTSSSHHSH [KMT2E]	3.76
HLHLETFKAVLDGLDVLLAQEVRP [PRAME]	2.18
EVLRMCVAVKKKLQLYFWKDREFH [VPS39]	2.49
SIIAVAMQRGARLPAEVAGLSQVL [POMT2]	2.35
GNSISISALQSLLQHLIGLSNLTH [PRAME]	2.54
VRFDGYVIDGATALWCAAGAGHFE [FEM1B]	2.91
HSRRHESYSRGYSYHDGYGEALGR [RBMY1A1]	3.14
FKHPVIGVHVRRTDKVGTEAAFHP [FUT8]	2.98
SQTPILQALQHVQASCDEAHKMKF [INTS3]	3.88

Item under review: ENAAFKDVALVLTVLLEEETLEAS [TOR1AIP2] . Reported protein stability index? 2.31

Item GFPGERTYNTKVYKMFASRRKQRY [LOXL2] has what recorded protein stability index? 2.72

Sample PLFTPQSPVTATLSDEDDGFVDLL [CDC25A] — what was its protein stability index? 4.65

###

# Test: protein stability index of a GFP-peptide fusion (GPS, HEK-293T) (PSI 1-6); higher = more stable
# Conditions used: treatment: DMSO; c terminus: a fixed tail appended
Value type: protein stability index
// no unit string in output, number only

Entry sequence	protein stability index
AMALTSSMNWGINLLISLTFLTVT [SLC2A12]	3.14
KVEQNSRPVSCSGRDALLDQIRQG [WASL]	4
VAALVVNFSQPVAGRPSLLRHDEV [NLN]	2.46
SSWKHGSGTQYVSTRQTQSWTAVT [C18orf25]	2.5

Look up protein stability index for this sequence: TGSKEKGLTKKRTKVQKKSLLLKK [NOP53] 4.48

Field request: protein stability index | item: SQMSPLSLYGENSNSLSSAEPLKE [ATF6] 5.01

Request the reported protein stability index associated with ALVYSITAQSTFNDLQDLREQILR [RAP1B] 2.27

Need protein stability index of VVACDFSPDGALLATASYDTRVYI [WSB1] , thanks. 3.41

###

A collection of sequences and their measured protein stability index
# Test: protein stability index of a GFP-peptide fusion (GPS, HEK-293T) (PSI 1-6); higher = more stable
# Conditions used: treatment: MLN4924 1 uM, 8 h; c terminus: a fixed tail appended
Kindly provide the number alone.

State the recorded protein stability index for this entry: ILSKVQKNHVGKPLLKMDLNSEQA [FAM98B] 3.46

// lookup protein stability index for SWFDNGSICMRMEILGCPLPDPNN [CPXM2] 2.3

GET /values?readout=protein stability index&item= VAREYYSEADASHCIQQILEAVLH [CAMK2B] 2.87

Data request, read-out protein stability index, for IKWLKEAEEESSGGEEEDEDENIE [EIF5] 5.49

Look up protein stability index for this sequence: LKLYEQWKNFDERKEMATILSKMP [CCNC] 2.62

Which protein stability index is reported for this sequence? IIMWDIGGRKGRTLLLQGHHDKVQ [WDFY1] 2.2

Data request, read-out protein stability index, for AEGIGSTVFRAILDYYKTGIIRCP [BTBD10] 1.99

// protein stability index lookup, key: VVRYLLEQRADPNAKAHCGATALH [FEM1B] 2.34

Please report the recorded protein stability index for QRQAPGPARDYSQYYRTIEELQNK [KRT17] . 4.12

May I ask what protein stability index has been recorded for VDDLSVEWDAMGGKVQDIKAREKD [FSD1] ? 5.5

###

// reported protein stability index per item
# Test: protein stability index of a GFP-peptide fusion (GPS, HEK-293T) (PSI 1-6); higher = more stable
# Conditions used: treatment: MLN4924 1 uM, 8 h; c terminus: a fixed tail appended

# example entries with known answers
Entry sequence	protein stability index
NSQVHRETEDVDYGETDFHKQDGK [TMEM40]	5.52
RGPRMCRFIRERDRAVNDYPSLYY [CDC25B]	2.12
QAIFHAVDQYLALPDVSLGRYAYV [MCOLN1]	2.68
SPVVVEKSNSYPHQLYTSSSHHSH [KMT2E]	3.82
PEGIQKVAKCLIGVNYPKPMVNHA [CRY1]	2.87
ARKQDMNTKRAIHTLAVMNDRLYA [KLHL14]	2.93

What does the record list as protein stability index for GPRFLAYFGSFATVGLLWFAHHSL [TMEM175] ? 3

Need protein stability index, item AMALTSSMNWGINLLISLTFLTVT [SLC2A12] 3.32

###

protein stability index: recorded values
# Test: protein stability index of a GFP-peptide fusion (GPS, HEK-293T) (PSI 1-6); higher = more stable
# Conditions used: treatment: MLN4924 1 uM, 8 h; c terminus: a fixed tail appended
Answer using only a numeral; do not append any unit.

Solved entries (count: 6):
Entry sequence	Value type	Reading
GGACPAFLPSLRPPPLTSPSHGSL [NCF4]	protein stability index	3.71
DPANCDYVIVSGAQRKEERWDMAD [YJU2B]	protein stability index	4.63
ERSMSENAVRQNGQLVRNDSLWHR [MFF]	protein stability index	3.69
DTAEVYAAGKAEVVLGNIIKKKGW [KCNAB2]	protein stability index	3.86
LTHFSRRYCQCNPDDSTSEDGIHT [PSD2]	protein stability index	3.77
FICQATGDPRPKIVWNKKGKKVSN [PTPRD]	protein stability index	3.35

Next sequence, please.
Field request: protein stability index | item: TTHFQSIPDAFWWAVVTMTTVGYG [KCNA4] 2.96

###

# Test: protein stability index of a GFP-peptide fusion (GPS, HEK-293T) (PSI 1-6); higher = more stable
# Conditions used: treatment: DMSO; c terminus: a fixed tail appended
Value type: protein stability index
Form rule: numeric answer, no unit written next to it.

Entry sequence	Reading
VNLQHLDLLNNKLVTLPVSFAQLK [LRRC59]	2.12
YSSSKGSLRLCDMRAAALCDKHSK [PPP2R2C]	2.53
QLDKNSEVYQEVQAMFDTLGIPKS [FAM98B]	3.11

Query: protein stability index; subject: KWMLGAEDLTPEDDMPIGRNVLEL [PTPRD] 3.9

Suppose we examine the sequence AGINTHSNEFKESALTLACYKGHL [ANKRD17] ; what protein stability index value has been reported? 2.76

Give its protein stability index value. Item: FAIGVCTGLVGLFVDFFVRLFTQL [CLCN6] 2.65

###

# Test: protein stability index of a GFP-peptide fusion (GPS, HEK-293T) (PSI 1-6); higher = more stable
# Conditions used: treatment: MLN4924 1 uM, 8 h; c terminus: a fixed tail appended
Param threshold (3) applies to protein stability index; output fulfilled when value >= threshold, not fulfilled when value < threshold.

Entry sequence	Group
IQPGPFRAVLKYLYTGELDENERD [RHOBTB2]	fulfilled
LTEIYRIVSQKQMSDRRENDMSPS [RAB11A]	fulfilled
IKHVLQTFGPIPEFSRATAEKVNQ [CRYL1]	fulfilled
AGISRSPTICMAYLMKTKQFRLKE [DUSP5]	not fulfilled
SQTPILQALQHVQASCDEAHKMKF [INTS3]	fulfilled
FCQTDQTCICYLCMFQEHKNHSTV [TRIM29]	not fulfilled

Please find the next sequence below.
Has HDPLYGKLFSTYLRPPHTSRGTSQ [LPCAT4] a recorded protein stability index greater than or equal to 3? fulfilled

###

# Test: protein stability index of a GFP-peptide fusion (GPS, HEK-293T) (PSI 1-6); higher = more stable
# Conditions used: treatment: DMSO; c terminus: a fixed tail appended
Returns one of True or False; True when protein stability index is >= 3.

Examples from the recorded data:
Entry sequence	Group
RTIYHMFIALLILFILSTLVVDYI [SOAT1]	False
GIKVQNGGIVTDTPASNHLPGWED [SLC19A2]	True

Item LVPALRLPGRKLVSSAVSPSIIPQ [INTS4] with protein stability index of 3 or above? False

In plain terms: is recorded protein stability index at least 3 for ARPSETFARFCKSQESALGNTVPA [DNAAF3] ? True

Determine whether measured protein stability index meets or exceeds 3 for YETVAAATSESTTVEPGKLDVGAT [DRICH1] True

Please tell me: is the sequence GPRFLAYFGSFATVGLLWFAHHSL [TMEM175] at or over 3 in terms of protein stability index? True

Does protein stability index meet or surpass 3 for ELLLFAVGFIMAGTPMALIVISYI [OR3A1] ? False

Answer whether protein stability index of VPAQKFSALTFLRVDQDKDKDCSL [SMOC2] is greater than or equal to 3. True

Check the entry RWSSDLNKHLTTHQGIKPYKCSWC [ZNF75A] : does protein stability index equal or exceed 3? False

In plain terms: is recorded protein stability index at least 3 for SETPKSQVGTLLFRSRSRLTHLSL [CDC25B] ? False

# check: protein stability index of DPLSLLDDSKFPIEDTPLVPVSFI [PCDHGA10] is greater than or equal to 3 False

Evaluate PALAPVPRNSCITCPQCHRSLILD [TRIM9] : protein stability index at minimum 3? True
